The reported numbers originate from patent US10696665B2.

# tested-system: IDH1 R132H (Homo sapiens (Human), UniProt O75874, R132H)
# Sequence (O75874 whole entry R132H): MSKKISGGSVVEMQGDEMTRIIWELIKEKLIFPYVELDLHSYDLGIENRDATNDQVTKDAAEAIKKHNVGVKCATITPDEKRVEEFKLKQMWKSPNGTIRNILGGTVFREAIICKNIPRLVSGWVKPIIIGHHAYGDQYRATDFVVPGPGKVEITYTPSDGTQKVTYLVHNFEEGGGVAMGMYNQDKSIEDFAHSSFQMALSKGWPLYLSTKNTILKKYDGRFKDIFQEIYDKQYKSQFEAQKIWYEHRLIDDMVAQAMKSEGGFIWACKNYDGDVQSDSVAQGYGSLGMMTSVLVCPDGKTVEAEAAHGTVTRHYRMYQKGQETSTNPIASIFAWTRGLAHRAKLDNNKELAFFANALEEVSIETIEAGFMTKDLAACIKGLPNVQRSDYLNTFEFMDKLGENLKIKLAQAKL
# assay-remarks: Biochemical assay for IDH1-R132H mutant enzyme (conversion of αKG to 2HG, RapidFire MS)
# test-conditions: mean ± SEM; 60 minutes
reported-endpoint: IC50 (nM)

As a guide, the following entries are already answered.
compound="CC(=O)N1CCN(Cc2ccc([C@H](C)Nc3nccc(N4C(=O)OC[C@@H]4C(C)C)n3)cc2)CC1 [Art compound, reference compound]" reported_endpoint=IC50 endpoint_result=51
compound="C=CC(=O)N1CCN(C(CC)c2ccc([C@H](C)Nc3nccc(N4CCOC4=O)n3)cc2)CC1 (single isomer, unassigned) [Example 17]" reported_endpoint=IC50 endpoint_result=273
compound="C=CC(=O)N1CCN(Cc2ccc([C@H](C)Nc3nccc(N4C(=O)OC[C@@H]4[C@@H](C)O)n3)cc2)CC1 [Example 13]" reported_endpoint=IC50 endpoint_result=428
compound="C=CC(=O)N1CCN(Cc2ccc([C@H](C)Nc3ncc(F)c(N4C(=O)OC[C@@H]4C(C)C)n3)cc2)CC1 [Example 5]" reported_endpoint=IC50 endpoint_result=46.6

[I] C=CC(=O)N1CCN(Cc2ccc(C(CF)Nc3nccc(N4C(=O)OC[C@@H]4CC)n3)cc2)CC1 (single isomer, unassigned) [Example 9]
[II] C=CC(=O)N1CCN(Cc2ccc(C(CF)Nc3nccc(N4C(=O)OCC4(C)C)n3)cc2)CC1 (single isomer, unassigned) [Example 10]
Query string: Among I and II , which shows a numerically higher IC50 result? Return value: the label identifying the chosen record.
Result string: II
(II: 261 nM, I: 176 nM)

====

# tested-system: IDH1 R132H mutant enzyme (Homo sapiens (Human), UniProt O75874, R132H)
# Sequence (O75874 whole entry R132H): as the sequence (O75874 whole entry R132H) above
# assay-remarks: U87MG/IDH1R132H cell assay (intracellular 2HG)
# test-conditions: U87MG glioma cells stably transfected with R132H; mean ± SEM; read-out: U87MG (IDH1/R132H 2-hydroxyglutarate IC50)
reported-endpoint: IC50 (nM)

[a] C=CC(=O)N1CCN(Cc2ccc([C@H](C)Nc3ncc(F)c(N4C(=O)OCC4(C)C)n3)cc2)CC1 [Example 8]
[b] C=CC(=O)N1CCN(C(CC)c2ccc([C@H](C)Nc3nc(N)cc(N4C(=O)OCC4(C)C)n3)cc2)CC1 (single isomer, unassigned) [Example 25]
Query string: Which value of IC50 is greater, the one for a or the one for b ? Return value: the label identifying the chosen record.
Result string: a
(a: 18.6 nM, b: 0.348 nM)

====

# tested-system: IDH1 R132C (Homo sapiens (Human), UniProt O75874, R132C)
# Sequence (O75874 whole entry R132C): as the sequence (O75874 whole entry R132H) above, with H132C counted along it
# assay-remarks: Biochemical assay for IDH1-R132C mutant enzyme (conversion of αKG to 2HG, RapidFire MS)
# test-conditions: mean ± SEM; 40 minutes
pIC50: −log10 of the molar value.
reported-endpoint: pIC50

compound=C=CC(=O)N1CCN(Cc2ccc([C@H](C)Nc3nc(F)cc(N4C(=O)OCC4(C)C)n3)cc2)CC1 reported_endpoint=pIC50 endpoint_result=7.08
compound="C=CC(=O)N1CCN(Cc2ccc(C(CF)Nc3nccc(N4C(=O)OC[C@@H]4CC)n3)cc2)CC1 (single isomer, unassigned)" reported_endpoint=pIC50 endpoint_result=7.00
compound="C=CC(=O)N1CCN(C(CC)c2ccc([C@H](C)Nc3nc(N)cc(N4C(=O)OCC4(C)C)n3)cc2)CC1 (single isomer, unassigned) [Example 24]" reported_endpoint=pIC50 endpoint_result=7.74
compound="C=CC(=O)N1CCN(C(CC2CC2)c2ccc([C@H](C)Nc3nccc(N4C(=O)OC[C@@H]4[C@@H](C)O)n3)cc2)CC1 (stereo partly drawn)" reported_endpoint=pIC50 endpoint_result=7.74
compound="CC(=O)N1CCN(Cc2ccc([C@H](C)Nc3nccc(N4C(=O)OC[C@@H]4C(C)C)n3)cc2)CC1 [Art compound, reference compound]" reported_endpoint=pIC50 endpoint_result=7.60
compound=C=CC(=O)N1CCN(Cc2ccc([C@H](C)Nc3nccc(N4C(=O)OC[C@@H]4C)n3)cc2)CC1 reported_endpoint=pIC50 endpoint_result=6.68
compound="C=CC(=O)N1CCN(C(CC2CC2)c2ccc([C@H](C)Nc3nc(F)cc(N4C(=O)OCC4(C)C)n3)cc2)CC1 (single isomer, unassigned) [Example 22]" reported_endpoint=pIC50 endpoint_result=7.66
compound="C=CC(=O)N1CCN(C(CC)c2ccc([C@H](C)Nc3nc(N)cc(N4C(=O)OCC4(C)C)n3)cc2)CC1 (single isomer, unassigned) [Example 25]" reported_endpoint=pIC50 endpoint_result=8.05
compound=C=CC(=O)N1CCN(Cc2ccc([C@H](C)Nc3nccc(N4C(=O)OCC4(C)C)n3)cc2)CC1 reported_endpoint=pIC50 endpoint_result=7.01
compound=C=CC(=O)N1CCN(Cc2ccc([C@H](C)Nc3nccc(N4C(=O)OC[C@@H]4[C@@H](C)O)n3)cc2)CC1 reported_endpoint=pIC50 endpoint_result=6.57

[I] C=CC(=O)N1CCN(Cc2ccc([C@H](C)Nc3ncc(F)c(N4C(=O)OC[C@@H]4C(C)C)n3)cc2)CC1
[II] C=CC(=O)N1CCN(Cc2ccc([C@H](C)Nc3nccc(N4C(=O)OC[C@@H]4[C@@H](C)F)n3)cc2)CC1
Query string: I need your help: which of the pair I , II has higher pIC50? Your choice should be expressed through its label.
Result string: I

[a] C=CC(=O)N1CCN(Cc2ccc([C@H](C)Nc3nccc(N4C(=O)OC[C@@H]4CC)n3)cc2)CC1
[b] C=CC(=O)N1CCN(C(CC)c2ccc([C@H](C)Nc3nccc(N4CCOC4=O)n3)cc2)CC1 (single isomer, unassigned) [Example 16]
[c] C=CC(=O)N1CCN(Cc2ccc([C@H](C)Nc3nccc(N4C(=O)OC[C@@H]4[C@H](C)OC)n3)cc2)CC1
[d] C=CC(=O)N1CCN(C(CC)c2ccc([C@H](C)Nc3nccc(N4CCOC4=O)n3)cc2)CC1 (single isomer, unassigned) [Example 17]
Query string: Arrange the 4 entries by pIC50 so the values rise. Provide your answer as the labels ordered per the instruction.
Result string: d, b, c, a
(d: 6.23, b: 6.54, c: 6.99, a: 7.62)

====

# tested-system: IDH1 R132H (Homo sapiens (Human), UniProt O75874, R132H)
# assay-remarks: Biochemical assay for IDH1-R132H mutant enzyme (conversion of αKG to 2HG, RapidFire MS)
# test-conditions: mean ± SEM; 60 minutes
reported-endpoint: IC50

Use these answered entries as a reference point.
compound="C=CC(=O)N1CCN(C(CC2CC2)c2ccc([C@H](C)Nc3nccc(N4C(=O)OC[C@@H]4C(C)C)n3)cc2)CC1 (single isomer, unassigned) [Example 20]" endpoint_result="< 5.08 nM"
compound=C=CC(=O)N1CCN(Cc2ccc([C@H](C)Nc3nccc(N4C(=O)OC[C@@H]4[C@H](C)OC)n3)cc2)CC1 endpoint_result="90.9 nM"

In the following, a different compound is considered.
Query string: Write down the reported IC50 of C=CC(=O)N1CCN(C(CC2CC2)c2ccc([C@H](C)Nc3nc(F)cc(N4C(=O)OCC4(C)C)n3)cc2)CC1 (single isomer, unassigned) [Example 23] , test system: IDH1 R132H (Homo sapiens (Human), UniProt O75874, R132H).
Result string: < 5.08 nM

====

# tested-system: IDH1 mutant R132C (Homo sapiens, UniProt O75874, R132C)
# Sequence (O75874 2-414 R132C limits assumed): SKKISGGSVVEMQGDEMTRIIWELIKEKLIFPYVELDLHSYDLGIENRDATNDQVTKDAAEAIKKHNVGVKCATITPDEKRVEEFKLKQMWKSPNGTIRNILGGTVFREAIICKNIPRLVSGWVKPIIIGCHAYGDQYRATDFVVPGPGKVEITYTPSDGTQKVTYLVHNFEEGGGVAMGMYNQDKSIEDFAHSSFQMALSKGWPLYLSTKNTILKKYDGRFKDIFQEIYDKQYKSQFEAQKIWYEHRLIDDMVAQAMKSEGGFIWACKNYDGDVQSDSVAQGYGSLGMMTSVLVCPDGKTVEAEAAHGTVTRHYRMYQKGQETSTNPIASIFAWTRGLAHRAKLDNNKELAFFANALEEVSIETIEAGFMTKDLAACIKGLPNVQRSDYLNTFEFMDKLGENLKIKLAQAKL
# assay-remarks: HT1080 cell assay (intracellular 2HG and αKG)
# Format: cell-based
# test-conditions: HT1080 fibrosarcoma cells, intracellular 2HG; mean ± SEM; read-out: HT1080 (R132C, 2-hydroxyglutarate) IC50
reported-endpoint: IC50 (nM)

molecule="C=CC(=O)N1CCN(Cc2ccc(C(CF)Nc3nccc(N4C(=O)OCC4(C)C)n3)cc2)CC1 (single isomer, unassigned)" tested_system="IDH1 mutant R132C (Homo sapiens, UniProt O75874, R132C)" reported_endpoint=IC50 endpoint_result=63.9

[P] C=CC(=O)N1CCN(C(CC2CC2)c2ccc([C@H](C)Nc3nc(F)cc(N4C(=O)OCC4(C)C)n3)cc2)CC1 (single isomer, unassigned) [Example 22]
[Q] C=CC(=O)N1CCN(C(CC2CC2)c2ccc([C@H](C)Nc3nc(F)cc(N4C(=O)OCC4(C)C)n3)cc2)CC1 (single isomer, unassigned) [Example 23]
[R] C=CC(=O)N1CCN(C(CC2CC2)c2ccc([C@H](C)Nc3nccc(N4C(=O)OC[C@@H]4C(C)C)n3)cc2)CC1 (single isomer, unassigned) [Example 21]
[S] C=CC(=O)N1CCN(Cc2ccc([C@H](C)Nc3nccc(N4C(=O)OC[C@@H]4C)n3)cc2)CC1
Query string: Order the entries by their reported IC50, beginning at the minimum. I'd appreciate it if you listed the labels in the requested order.
Result string: R, P, Q, S
(R: 0.354 nM, P: 0.691 nM, Q: 1.03 nM, S: 261 nM)
